# TEST NAME: Powder dissolution, USP/NF paddle method with HPLC analysis
# Format: physicochemical
# ASSAY CONTEXT: 30 min; 500 mg in 900 mL water, 37 °C, 75 rpm; replicate #1; trihydrate
RECORDED ENDPOINT: Amoxicillin released in solution #1 (%)

CC1(C)S[C@@H]2[C@H](NC(=O)[C@H](N)c3ccc(O)cc3)C(=O)N2[C@H]1C(=O)O.O.O.O [entry 2, amoxicillin trihydrate]; 99.65
CC1(C)S[C@@H]2[C@H](NC(=O)[C@H](N)c3ccc(O)cc3)C(=O)N2[C@H]1C(=O)O.O.O.O [entry 4, amoxicillin trihydrate]; 93.27
CC1(C)S[C@@H]2[C@H](NC(=O)[C@H](N)c3ccc(O)cc3)C(=O)N2[C@H]1C(=O)O.O.O.O [entry 1, amoxicillin trihydrate]; 99.50

* * *

# TEST NAME: Powder dissolution, USP/NF paddle method with HPLC analysis
# Type: physicochemical
# ASSAY CONTEXT: 3 min; 500 mg in 900 mL water, 37 °C, 75 rpm; replicate #2; trihydrate
RECORDED ENDPOINT: Amoxicillin released in solution #2 (%)

CC1(C)S[C@@H]2[C@H](NC(=O)[C@H](N)c3ccc(O)cc3)C(=O)N2[C@H]1C(=O)O.O.O.O [entry 6, amoxicillin trihydrate]; 76.25
CC1(C)S[C@@H]2[C@H](NC(=O)[C@H](N)c3ccc(O)cc3)C(=O)N2[C@H]1C(=O)O.O.O.O [entry 4, amoxicillin trihydrate]; 76.89
CC1(C)S[C@@H]2[C@H](NC(=O)[C@H](N)c3ccc(O)cc3)C(=O)N2[C@H]1C(=O)O.O.O.O [entry 2, amoxicillin trihydrate]; 99.88

* * *

# TEST NAME: Powder dissolution, USP/NF paddle method with HPLC analysis
# Format: physicochemical
# ASSAY CONTEXT: 30 min; 500 mg in 900 mL water, 37 °C, 75 rpm; replicate #2; trihydrate
RECORDED ENDPOINT: Amoxicillin released in solution #2 (%)

CC1(C)S[C@@H]2[C@H](NC(=O)[C@H](N)c3ccc(O)cc3)C(=O)N2[C@H]1C(=O)O.O.O.O [entry 3, amoxicillin trihydrate]; 99.18
CC1(C)S[C@@H]2[C@H](NC(=O)[C@H](N)c3ccc(O)cc3)C(=O)N2[C@H]1C(=O)O.O.O.O [entry 4, amoxicillin trihydrate]; 95.75
CC1(C)S[C@@H]2[C@H](NC(=O)[C@H](N)c3ccc(O)cc3)C(=O)N2[C@H]1C(=O)O.O.O.O [entry 6, amoxicillin trihydrate]; 96.66

* * *

# TEST NAME: Powder dissolution, USP/NF paddle method with HPLC analysis
# Format: physicochemical
# ASSAY CONTEXT: 90 min; 500 mg in 900 mL water, 37 °C, 75 rpm; replicate #2; trihydrate
RECORDED ENDPOINT: Amoxicillin released in solution #2 (%)

CC1(C)S[C@@H]2[C@H](NC(=O)[C@H](N)c3ccc(O)cc3)C(=O)N2[C@H]1C(=O)O.O.O.O [entry 2, amoxicillin trihydrate]; 99.24
CC1(C)S[C@@H]2[C@H](NC(=O)[C@H](N)c3ccc(O)cc3)C(=O)N2[C@H]1C(=O)O.O.O.O [entry 6, amoxicillin trihydrate]; 99.48
CC1(C)S[C@@H]2[C@H](NC(=O)[C@H](N)c3ccc(O)cc3)C(=O)N2[C@H]1C(=O)O.O.O.O [entry 5, amoxicillin trihydrate]; 99.64
CC1(C)S[C@@H]2[C@H](NC(=O)[C@H](N)c3ccc(O)cc3)C(=O)N2[C@H]1C(=O)O.O.O.O [entry 4, amoxicillin trihydrate]; 99.52
CC1(C)S[C@@H]2[C@H](NC(=O)[C@H](N)c3ccc(O)cc3)C(=O)N2[C@H]1C(=O)O.O.O.O [entry 3, amoxicillin trihydrate]; 99.28
CC1(C)S[C@@H]2[C@H](NC(=O)[C@H](N)c3ccc(O)cc3)C(=O)N2[C@H]1C(=O)O.O.O.O [entry 1, amoxicillin trihydrate]; 99.61
